Source listed as PubChem BioAssay.

# experiment description: modulators of S6 phosphorylation in cells, primary screen, cell-based, A549, cytoblot, luminescence, serum-stimulated (AID 1158);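 note: serum-stimulated A549 lung adenocarcinoma cells; signal is phosphorylated S6 detected by cytoblot immunostaining with HRP secondary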
# measurement context: A549 phospho-S6 cytoblot, 5 h, higher = more signal
If the reported z-score equals or exceeds 0.2, assign yes. If not, assign no.

[[record]]
molecule = "CO[C@@H](C1CCCCC1)[C@@H](C)[C@H](OCc1cccc(Br)c1)[C@@H](C)CO"
label = "no"

[[record]]
molecule = "CC(C)=NOC[C@@H](O)[C@H]1O[C@@H]2OC(C)(C)O[C@@H]2[C@H]1O"
label = "no"

[[record]]
molecule = "CCOC(=O)[C@H](Cc1ccccc1)NC(=O)CCC1CC(OC(=O)NCc2cccc3ccccc23)CC2(CCCC(COC(=O)NCCOc3ccccc3)O2)O1 (some centres not stated)"
label = "yes"

[[record]]
molecule = "COC(=O)[C@H](Cc1ccccc1)NC(=O)[C@@H](C)CO"
label = "yes"

[[record]]
molecule = "CC(C)(C)N1C(=O)[C@H]2[C@H]3[C@H](O)[C@H](O)CC(=NNC(=O)OCc4ccccc4)[C@@H]3CC[C@H]2C1=O"
label = "no"

[[record]]
molecule = "COC(=O)[C@H](C)NC(=O)CCC1CC(OC(=O)NCc2ccc3c(c2)OCO3)CC2(CCCC(COC(=O)NCCc3ccc(Cl)cc3)O2)O1 (some centres not stated)"
label = "yes"

[[record]]
molecule = "CO[C@H]1COC(=O)[C@H](C)COC(=O)[C@@H](OCc2ccccc2)C=C[C@@H]1C"
label = "yes"

[[record]]
molecule = "CO[C@H]1COC(=O)CC=C[C@H](C)[C@H](OC)COC(=O)[C@@H](C)NC(=O)CC=C[C@@H]1C"
label = "no"

[[record]]
molecule = "CC(C)=NO[C@@H](C)c1cn([C@H](CO)Cc2ccccc2)nn1"
label = "yes"

[[record]]
molecule = "COC(=O)[C@@H]1CC[C@H](C)[C@@H](c2ccc(Br)cc2)N1C[C@@H](O)CN=[N+]=[N-]"
label = "yes"

[[record]]
molecule = "CCOC(=O)NN=C1C[C@@H](O)[C@@H](O)[C@@H]2[C@@H]3C(=O)N(c4ccc(F)cc4F)C(=O)[C@@H]3CC[C@H]12"
label = "yes"

[[record]]
molecule = "CC(=O)OC[C@H]1O[C@@H](ON=C2[C@H]3CCn4c(=O)n(-c5ccccc5)c(=O)n4[C@H]3[C@H](O)[C@@H]3O[C@H]23)[C@H](OC(C)=O)[C@@H](OC(C)=O)[C@@H]1OC(C)=O"
label = "no"


* * *

# System: Fibrinogen (Alexa647-labelled)
# experiment description: fibrinogen binders on compound microarrays, profiling panel, artefact control for SMM control-protein annotation, biochemical, small-molecule microarray, 635/667 nm fluorescence (AID 1131);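 note: z-score merges 667 nm fluorescence with per-spot signal-to-noise over triplicate slides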
# measurement context: fibrinogen-A647 binding fluorescence, higher = more signal
If the reported composite z-score equals or exceeds 0.7, assign Met. If not, assign Not met.

[[record]]
compound = "Cc1ccc(C(C)C)n1C(=O)OC(C)(C)C"
label = "Not met"

[[record]]
compound = "COc1ccc(OC[C@H]2CN3[C@@H](CC[C@@H](C)[C@@H]3c3ccc(Br)cc3)C(=O)O2)cc1"
label = "Not met"

[[record]]
compound = "CC(C)[C@@H](OCc1ccccc1)[C@H](C)C=NOC[C@@H](O)[C@H]1O[C@@H]2OC(C)(C)O[C@@H]2[C@H]1O"
label = "Met"

[[record]]
compound = "CC(CCC(=O)OC[C@H]1O[C@H](C#Cc2ccccc2)C=C[C@@H]1Oc1ccc(C)cc1)=NOC(C)CN1CCCCc2nc(C)c(C)cc21 (stereo not given in full)"
label = "Not met"

[[record]]
compound = "COc1ccc(COC(=O)NN=C2C[C@@H](O)[C@@H](O)[C@@H]3[C@@H]4C(=O)N(Cc5ccccc5)C(=O)[C@@H]4CC[C@@H]23)cc1"
label = "Not met"

[[record]]
compound = "O=C1[C@H]2CCn3c(=O)n(-c4ccccc4)c(=O)n3[C@H]2[C@H](O)[C@@H]2O[C@H]12"
label = "Not met"

[[record]]
compound = "CCOC(=O)[C@H](CC(C)C)NC(=O)CCC1CC(OC(=O)NCc2ccc3c(c2)OCO3)CC2(CCCC(COC(=O)NCCc3ccc(Cl)cc3)O2)O1 (stereo not given in full)"
label = "Not met"

[[record]]
compound = "CC(C)(C)N1C(=O)[C@H]2[C@H]3[C@H](O)[C@H](O)CC(=NOC[C@@H](O)COCc4ccco4)[C@@H]3CC[C@H]2C1=O"
label = "Met"

[[record]]
compound = "COC(=O)[C@@H]1CC[C@H](C)[C@@H](c2ccc(Br)cc2)N1C[C@@H](O)CN=[N+]=[N-]"
label = "Not met"

[[record]]
compound = "CC(C)CON=C1C[C@@H](O)[C@@H](O)[C@@H]2[C@@H]3C(=O)N(Cc4ccc5c(c4)OCO5)C(=O)[C@@H]3CC[C@@H]12"
label = "Not met"

[[record]]
compound = "COc1ccc(COC(=O)NN=C2C[C@@H](O)[C@@H](O)[C@@H]3[C@@H]4C(=O)N(C[C@@H]5CCCO5)C(=O)[C@@H]4CC[C@@H]23)cc1"
label = "Met"

[[record]]
compound = "CCOC(=O)[C@H](Cc1ccccc1)NC(=O)CCC1CC(OC(=O)NCc2cccc3ccccc23)CC2(CCCC(COC(=O)NCc3ccc4c(c3)OCO4)O2)O1 (stereo not given in full)"
label = "Not met"

[[record]]
compound = "CC(CCN1CCc2nc(-c3ccccc3)c(-c3ccccc3)cc2C1)=NO[C@@H](C)c1cc(-c2c(C)cc(C)cc2C)no1"
label = "Not met"

[[record]]
compound = "CCc1cc2c(nc1CC)CCN(CCC(C)=NOC(C)CN1CCCCc3nc(C)c(C)cc31)C2 (stereo not given)"
label = "Met"

[[record]]
compound = "COC(=O)[C@H](C)NC(=O)CCC1CC(OC(=O)NCc2cccc3ccccc23)CC2(CCCC(COC(=O)NCCC(C)C)O2)O1 (stereo not given in full)"
label = "Not met"

[[record]]
compound = "CC(CCN1CCc2nc(-c3ccccc3)c(-c3ccccc3)cc2C1)=NOC(C)CN1CCCc2nc(C)c(C)cc21 (stereo not given)"
label = "Met"

[[record]]
compound = "CO[C@@H](C1CCCCC1)[C@@H](C)[C@H](OCc1cccc(Br)c1)[C@@H](C)CO"
label = "Not met"

[[record]]
compound = "COC(=O)[C@H](C)NC(=O)CCC1CC(OC(=O)NCc2cccc3ccccc23)CC2(CCCC(COC(=O)NCc3cccc(C(F)(F)F)c3)O2)O1 (stereo not given in full)"
label = "Met"

